Exercise: for every item that follows, state its recorded protein stability index.
B1: FCHSD1 (parent)
chain: LEAAEVILEHAHRGEQTTSQVSWE

variants of: B1; test: protein stability index of a GFP-peptide fusion (GPS, HEK-293T) (PSI 1-6); higher = more stable; conditions: c terminus: a fixed tail appended;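 also: lentivirally expressed fusions sorted by FACS into six bins by GFP to DsRed ratio, PSI derived from sequencing read proportions per bin multiplied by bin number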
Simply state the number, no unit and no words.

Data request: Supply reported protein stability index belonging to this variant: `E5C`
Data returned: 2.82

Data request: Please indicate protein stability index recorded for `T17C`
Data returned: 4.51

Data request: Provide only the value of recorded protein stability index for `W23S`
Data returned: 5.24

Data request: Recall and state the measured protein stability index for `E5Q` .
Data returned: 4.2

Data request: Provide protein stability index value for the following variant: `L1I`
Data returned: 4.12

Data request: Identify the reported protein stability index for the following entry. `Q16Y`
Data returned: 3.69

Data request: Entry `V6I` needs its protein stability index filled in; supply it.
Data returned: 4.03

Data request: Using known records, supply protein stability index for `H10L`
Data returned: 4.34

Data request: Return value of protein stability index for input `H12P` , no commentary.
Data returned: 4.43

Data request: Identify protein stability index associated with the variant `A11I`
Data returned: 3.33

Data request: Output protein stability index of `S22A`
Data returned: 4.57

Data request: Identify protein stability index associated with the variant `G14I`
Data returned: 3.85

Data request: Please look at this variant and report its protein stability index: `T17N`
Data returned: 4.39

Data request: Kindly indicate its recorded protein stability index. Item: `Q20L`
Data returned: 4.17

Data request: Please look at this variant and report its protein stability index: `E15W`
Data returned: 2.2

Data request: For the variant `H12A` , give its measured protein stability index value.
Data returned: 4.23

Data request: Could you please provide reported protein stability index for `V21C` ? Thanks!
Data returned: 4.62

Data request: Please supply the value of reported protein stability index for the item `L1W`
Data returned: 3.35

Data request: Annotate the variant `L1V` with its measured protein stability index.
Data returned: 4.7

Data request: Specify reported protein stability index for the variant shown: `L8F`
Data returned: 4

Data request: Item `A11R` : provide protein stability index
Data returned: 4.71

Data request: Identify protein stability index associated with the variant `L1S`
Data returned: 4

Data request: Report measured protein stability index; entry is `I7W`
Data returned: 4.24

Data request: Input `E24F` , output reported protein stability index.
Data returned: 2.65

Data request: Return protein stability index (reported value) for this variant: `S19N`
Data returned: 4.7

Data request: Respond only with protein stability index recorded for `E2S`
Data returned: 3.7

Data request: State its protein stability index: `A3D`
Data returned: 5.14

Data request: // Input: `H10P` . Output its protein stability index only.
Data returned: 4.41

Data request: Let me know recorded protein stability index for `H12Y` , thanks.
Data returned: 4.09

Data request: Identify measured protein stability index corresponding to `E5A`
Data returned: 2.84

Data request: Quick one: give measured protein stability index for `E24Q`
Data returned: 3.95

Data request: Query protein stability index for `H12I`
Data returned: 4.25

Data request: Fill in reported protein stability index for this entry: `G14Q`
Data returned: 4.63

Data request: Please give the documented protein stability index of `L8S`
Data returned: 5.37

Data request: Using known records, supply protein stability index for `L1K`
Data returned: 4.67

Data request: Give the reported value of protein stability index for this record: `V6M`
Data returned: 3.85

Data request: Kindly indicate its recorded protein stability index. Item: `E9M`
Data returned: 2.66

Data request: Report protein stability index, nothing else, for this variant: `A3I`
Data returned: 2.88

Data request: Indicate its recorded protein stability index; the variant in question is `L8D`
Data returned: 5.35

Data request: Supply protein stability index value. Item: `V6K`
Data returned: 4.16

Data request: Dear colleague, please send me the reported protein stability index for `E2K` when you can.
Data returned: 3.93

Data request: Output measured protein stability index for this item: `S19A`
Data returned: 2.6

Values were extracted from the supplement of paper PMC10567573.
